Molecular target: RARβ (Homo sapiens)
Construct: gal4 (fusion partner); expressed in transfected cells; host or cells: COS-7
Sequence (P10826 183-417 limits assumed, species assumed): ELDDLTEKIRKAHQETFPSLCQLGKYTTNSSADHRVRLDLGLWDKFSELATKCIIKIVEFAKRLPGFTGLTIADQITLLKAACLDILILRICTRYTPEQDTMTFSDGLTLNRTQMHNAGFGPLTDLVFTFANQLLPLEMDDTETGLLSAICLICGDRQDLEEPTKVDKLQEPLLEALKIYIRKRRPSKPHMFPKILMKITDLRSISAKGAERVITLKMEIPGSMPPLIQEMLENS
Test: Transactivation assay for RAR beta (gal4-RAR fusion, luciferase reporter, COS-7 cells)
Assay type: cell-based
Conditions: ratio of test compound EC50 to that of atRA; inactive = no agonist action at the highest concentration tested
metric-name: RARβ activity ratio

[
  {
    "molecule": "COc1c(Cl)cc(C(=O)Nc2ccc(C(=O)O)cc2)cc1OCC(C)(C)C [AAA-105]",
    "metric-name": "RARβ activity ratio",
    "quantitative-result": 8.4
  }
]

[I] CCOc1c(Cl)cc(C(=O)Nc2ccc(C(=O)O)nc2)cc1Cl [AAA-026]
[II] COc1c(Cl)cc(C(=O)Nc2ccc(C(=O)O)c(C)c2)cc1OC(C)C [AAA-075]
[III] CCOc1c(Br)cc(C(=O)Nc2ccc(C(=O)O)c(C)c2)cc1C(F)(F)F [AAA-071]
QUERY: Ascending sort, RARβ activity ratio. List each label, following the requested order.
RESULT: III, II, I
(III: 160, II: 1134, I: 4920)

###

Target: RARγ (Homo sapiens, UniProt P13631)
Construct: gal4 (fusion partner); expressed in transfected cells; host or cells: COS-7
Sequence (P13631 185-419 limits assumed, species assumed): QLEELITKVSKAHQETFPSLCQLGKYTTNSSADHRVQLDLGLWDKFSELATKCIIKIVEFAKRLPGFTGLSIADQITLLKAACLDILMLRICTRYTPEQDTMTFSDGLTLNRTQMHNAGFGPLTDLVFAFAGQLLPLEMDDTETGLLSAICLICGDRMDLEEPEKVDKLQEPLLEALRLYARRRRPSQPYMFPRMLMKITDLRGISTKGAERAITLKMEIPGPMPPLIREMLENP
Test: Transactivation assay for RAR gamma (gal4-RAR fusion, luciferase reporter, COS-7 cells)
Assay type: cell-based
Conditions: ratio of test compound EC50 to that of atRA; inactive = no agonist action at the highest concentration tested
metric-name: RARγ activity ratio

# count of solved cases: 3
[
  {
    "compound-structure-string": "CCOc1cc(C(=O)Nc2ccc(C(=O)O)c(C)c2)cc(OC(CC)CC)c1Cl",
    "RARγ activity ratio": 25172
  },
  {
    "compound-structure-string": "CCCOc1c(Cl)cc(C(=O)Nc2ccc(C(=O)O)cc2)cc1Cl",
    "RARγ activity ratio": 1200
  },
  {
    "compound-structure-string": "Cc1cc(NC(=O)c2cc(Cl)c(OC(C)(C)C)c(C(F)(F)F)c2)ccc1C(=O)O",
    "RARγ activity ratio": 0.36
  }
]

[A] Cc1cc(NC(=O)c2cc(Cl)c(OC3CCCC3)c(Cl)c2)ccc1C(=O)O
[B] Cc1cc(NC(=O)c2cc(F)c(OC(C)C)c(Cl)c2)ccc1C(=O)O
QUERY: # argmax over RARγ activity ratio for candidates A and B Give the label under which the chosen entry appears.
RESULT: B
(B: 14500, A: 51)

[1] CCOc1c(Cl)cc(C(=O)Nc2ccc(C(=O)O)c(C)c2)cc1C(F)(F)F
[2] O=C(Nc1ccc(C(=O)O)c(O)c1)c1cc(Cl)c(OC2CCC2)c(OC2CCC2)c1
QUERY: Problem: Given the entries 1 and 2 , determine which has the lower reported RARγ activity ratio. Selection: enter the item's label.
RESULT: 1
(1: 2985, 2: 20000)

[P] CC(C)Oc1cc(C(=O)Nc2ccc(C(=O)O)cc2)cc(OC(C)C)c1Br
[Q] CC(C)Oc1cc(C(=O)Nc2ccc(C(=O)O)cc2)cc(OC(C)C)c1Cl
[R] CC(C)(C)Oc1cc(C(=O)Nc2ccc(C(=O)O)cc2)cc(OC(C)(C)C)c1OC(C)(C)C
[S] CC(C)Oc1c(Cl)cc(C(=O)Nc2ccc(C(=O)O)cc2)cc1Cl
QUERY: Your job: order these 4 records by RARγ activity ratio, ascending. Answer format: the labels, in the requested order.
RESULT: R, S, Q, P

###

Molecular target: RARβ (Homo sapiens)
Construct: gal4 (fusion partner); expressed in transfected cells; host or cells: COS-7
Test: Transactivation assay for RAR beta (gal4-RAR fusion, luciferase reporter, COS-7 cells)
Type: cell-based
Conditions: ratio of test compound EC50 to that of atRA; inactive = no agonist action at the highest concentration tested
Procedure: Transcriptional transactivation assays were performed with gal4 fusion receptor constructs, created using each of the RAR ligand binding domains, co-transfected with the pFR-luc (Stratagene™) reporter construct in COS-7 cells. Briefly, on day 1, 96 well plates were seeded with 8000 cells per well then left to recover overnight. On day 2, the cells were co-transfected with 100 ng of reporter plasmid and 10 ng of the appropriate receptor plasmid per well using lipofectamine (Invitrogen™). […]
metric-name: RARβ activity ratio

Sample records with RARβ activity ratio:
[
  {
    "compound-structure-string": "CC(C)Oc1cc(C(=O)Nc2ccc(C(=O)O)cc2)cc(OC(C)C)c1Br",
    "RARβ activity ratio": 647
  },
  {
    "compound-structure-string": "O=C(O)c1ccc(NC(=O)c2cc(Cl)c(OCC3CC3)c(Cl)c2)cc1",
    "RARβ activity ratio": 2530
  },
  {
    "compound-structure-string": "CCOc1cc(C(=O)Nc2ccc(C(=O)O)cc2)cc(OC(CC)CC)c1Cl",
    "RARβ activity ratio": 100
  }
]

[a] CCOc1c(Br)cc(C(=O)Nc2ccc(C(=O)O)c(C)c2)cc1Br
[b] COc1c(Cl)cc(C(=O)Nc2ccc(C(=O)O)c(O)c2)cc1C(F)(F)F
QUERY: I'm curious, which of these has a smaller RARβ activity ratio number: a or b ? // respond with label for picked entry
RESULT: a

###

Target: RARα (Homo sapiens, UniProt P10276)
Construct: gal4 (fusion partner); expressed in transfected cells; host or cells: COS-7
Sequence (P10276 183-417 limits assumed, species assumed): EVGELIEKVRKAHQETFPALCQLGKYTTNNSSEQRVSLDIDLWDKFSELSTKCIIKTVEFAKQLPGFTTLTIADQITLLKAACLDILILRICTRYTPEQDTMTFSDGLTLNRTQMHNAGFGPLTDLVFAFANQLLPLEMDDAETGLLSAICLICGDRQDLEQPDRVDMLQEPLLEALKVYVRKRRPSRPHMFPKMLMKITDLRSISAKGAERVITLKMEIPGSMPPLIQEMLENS
Test: Transactivation assay for RAR alpha (gal4-RAR fusion, luciferase reporter, COS-7 cells)
Format: cell-based
Details: ratio of test compound EC50 to that of atRA on the same plate
Protocol: Transcriptional transactivation assays were performed with gal4 fusion receptor constructs, created using each of the RAR ligand binding domains, co-transfected with the pFR-luc (Stratagene™) reporter construct in COS-7 cells. Briefly, on day 1, 96 well plates were seeded with 8000 cells per well then left to recover overnight. On day 2, the cells were co-transfected with 100 ng of reporter plasmid and 10 ng of the appropriate receptor plasmid per well using lipofectamine (Invitrogen™). […]
metric-name: RARα activity ratio

Use these answered entries as a reference point.
[
  {
    "molecule": "CC(C)Oc1c(Cl)cc(C(=O)Nc2ccc(C(=O)O)cc2)cc1C(F)(F)F [AAA-034]",
    "RARα activity ratio": 2
  },
  {
    "molecule": "CCOc1c(F)cc(NC(=O)c2ccc(C(=O)O)cc2)cc1F [AAA-021]",
    "RARα activity ratio": 760
  },
  {
    "molecule": "CCOc1cc(C(=O)Nc2ccc(C(=O)O)cc2)cc(OC(CC)CC)c1Cl [AAA-114]",
    "RARα activity ratio": 4.4
  },
  {
    "molecule": "CCOc1c(OC(C)C)cc(C(=O)Nc2ccc(C(=O)O)c(F)c2)cc1OC(C)C [AAA-064]",
    "RARα activity ratio": 81
  },
  {
    "molecule": "CCOc1c(Cl)cc(C(=O)Nc2ccc(C(=O)O)c(Cl)c2)cc1Cl [AAA-018]",
    "RARα activity ratio": 151
  }
]

[I] COc1c(Cl)cc(C(=O)Nc2ccc(C(=O)O)cn2)cc1C(F)(F)F [AAA-065]
[II] CCOc1c(Br)cc(C(=O)Nc2ccc(C(=O)O)c(C)c2)cc1Br [AAA-053]
[III] CCOc1c(Cl)cc(C(=O)Nc2ccc(C(=O)O)cc2)cc1OC [AAA-084]
[IV] COc1c(OC(C)C)cc(C(=O)Nc2ccc(C(=O)O)c(C)c2)cc1OC(C)C [AAA-063]
QUERY: Rank by RARα activity ratio (largest to smallest). // format: requested-order list of labels
RESULT: IV, III, I, II

###

Target: RARα (Homo sapiens, UniProt P10276)
Construct: gal4 (fusion partner); expressed in transfected cells; host or cells: COS-7
Test: Transactivation assay for RAR alpha (gal4-RAR fusion, luciferase reporter, COS-7 cells)
Format: cell-based
Details: ratio of test compound EC50 to that of atRA on the same plate
metric-name: RARα activity ratio

Worked cases, answers included:
[
  {
    "compound": "CCOc1cc(C(=O)Nc2ccc(C(=O)O)c(C)c2)cc(OCC)c1Br",
    "RARα activity ratio": 16
  },
  {
    "compound": "COc1c(Cl)cc(C(=O)Nc2ccc(C(=O)O)c(C)c2)cc1OC(C)C",
    "RARα activity ratio": 4.7
  },
  {
    "compound": "CCOc1cc(C(=O)Nc2ccc(C(=O)O)c(C)c2)cc(Cl)c1OC(C)C",
    "RARα activity ratio": 7
  },
  {
    "compound": "CCOc1c(Cl)cc(C(=O)Nc2ccc(C(=O)O)cc2)cc1OCC1CC1",
    "RARα activity ratio": 1.3
  }
]

[A] Cc1cc(NC(=O)c2cc(Cl)c(OC(C)(C)C)c(C(F)(F)F)c2)ccc1C(=O)O
[B] CCOc1c(Cl)cc(C(=O)Nc2ccc(C(=O)O)cc2)cc1OC [AAA-024]
[C] COCCOc1cc(C(=O)Nc2ccc(C(=O)O)c(F)c2)cc(Cl)c1OC
[D] COc1cc(C(=O)Nc2ccc(C(=O)O)cc2)cc(Cl)c1OC(C)C
[E] CC(C)Oc1cc(C(=O)Nc2ccc(C(=O)O)c(O)c2)cc(Cl)c1OC(C)C
QUERY: Ascending sort, RARα activity ratio. Response format: the labels, sorted as the prompt asks.
RESULT: A, E, D, C, B

[1] CCOc1c(Cl)cc(C(=O)Nc2ccc(C(=O)O)c(C)c2)cc1OCC1CC1
[2] Cc1cc(NC(=O)c2cc(Cl)c(OC(C)(C)C)c(OC(C)(C)C)c2)ccc1C(=O)O
QUERY: Looking at recorded values for RARα activity ratio, does 1 or 2 come in lower? I would appreciate it if you answered with the label of your choice.
RESULT: 2

[1] CC(C)Oc1cc(C(=O)Nc2ccc(C(=O)O)cc2)cc(OC(C)C)c1Cl
[2] CC(C)Oc1cc(C(=O)Nc2ccc(C(=O)O)cc2)cc(OC(C)C)c1OC(C)C
QUERY: Rank 1 against 2 by their RARα activity ratio values and give the higher one. Return value: the label identifying the chosen record.
RESULT: 2

[1] CC(C)Oc1cc(C(=O)Nc2ccc(C(=O)O)c(O)c2)cc(OC(C)C)c1Br
[2] CCOc1ccc(C(=O)Nc2cc(F)c(C(=O)O)c(F)c2)cc1C(F)(F)F [XXX-02, reference compound]
QUERY: Higher RARα activity ratio between 1 and 2 ? Please reply using the label of the selected record.
RESULT: 2
(2: 2242, 1: 4)

Source: patent US9447028B2
